# Tested on: WSU-NHL
# protocolDescription: cells
# Type: cell-based
# setupConditions: Homo sapiens, 24 h, MTT, read-out: IC50
observationType: pIC50
pIC50 is defined as minus the log10 of a concentration measured in mol/L.

Exercise: May I ask what pIC50 has been recorded for `O=C(CCCCCCNC(=O)c1cnc(N(c2ccccc2)c2ccccc2)nc1)NO` ?
Solution: 5.06

----------
# Tested on: lymphoma cell lines
# protocolDescription: cells
# Type: cell-based
# setupConditions: panel of six lymphoma cell lines, 24 and 48 h; read-out: IC50 values ranging
observationType: IC50

Exercise: May I ask what IC50 has been recorded for `O=C(CCCCCCNC(=O)c1cnc(N(c2ccccc2)c2ccccc2)nc1)NO` ?
Solution: 1.51 to 64 µM

----------
# Tested on: Granta-519
# protocolDescription: cells
# Assay type: cell-based
# setupConditions: Homo sapiens; Granta-519, 48 h, MTT
observationType: IC50 (µM)
Just the number in µM, nothing appended.

Exercise: May I ask what IC50 has been recorded for `O=C(CCCCCCNC(=O)c1cnc(N(c2ccccc2)c2ccccc2)nc1)NO` ?
Solution: 20

----------
# Test system: Jeko-1
# protocolDescription: cells
# Format: cell-based
# setupConditions: Homo sapiens, JeKo-1, 24 h, read-out: IC50 at 24 hours
observationType: IC50
Answer format reminder: number followed by unit.

Exercise: May I ask what IC50 has been recorded for Cn1c(CCCC(=O)O)nc2cc(N(CCCl)CCCl)ccc21 [bendamustine] ?
Solution: 127 µM

----------
# System: Karpas-299
# protocolDescription: MTT cell viability in Karpas-299 cells
# Format: cell-based
# setupConditions: Homo sapiens, Karpas-299, 48 h
observationType: IC50

Exercise: May I ask what IC50 has been recorded for `O=C(CCCCCCNC(=O)c1cnc(N(c2ccccc2)c2ccccc2)nc1)NO` ?
Solution: 4.82 µM

----------
# Tested on: lymphoma cell lines
# protocolDescription: cells
# Format: cell-based
# setupConditions: 24 h, read-out: range of IC50
pIC50: −log10 of the molar value.
observationType: pIC50

Exercise: May I ask what pIC50 has been recorded for Cn1c(CCCC(=O)O)nc2cc(N(CCCl)CCCl)ccc21 [bendamustine] ?
Solution: 3.77 to 3.90

----------
# System: Granta-519
# protocolDescription: cells
# Type: cell-based
# setupConditions: Homo sapiens; Granta-519, 24 h, MTT
observationType: IC50 (µM)
Just the number in µM, nothing appended.

Exercise: May I ask what IC50 has been recorded for `O=C(CCCCCCNC(=O)c1cnc(N(c2ccccc2)c2ccccc2)nc1)NO` ?
Solution: 64
